Item-by-item account of DMS position-specific score (PSSM value) per amino-acid substitution, averaged
# System: G3BP1 NFT2
# Type: binding, human
# Run conditions: library DMS-BM; bait G3BP1 NFT2; prey CAPRIN1; AQMQGPYNFIQDSM(averaged): mean of the two overlapping peptides over the shared positions
Measured property: DMS position-specific score (PSSM value) per amino-acid substitution, averaged

>  <Substance>
AQMQGPYNFIQDSM(averaged) Q4N (AQMNGPYNFIQDSM)

>  <Reported measurement>
0.005313

$$$$
>  <Substance>
AQMQGPYNFIQDSM(averaged) Y7K (AQMQGPKNFIQDSM)

>  <Reported measurement>
0

$$$$
>  <Substance>
AQMQGPYNFIQDSM(averaged) M3N (AQNQGPYNFIQDSM)

>  <Reported measurement>
0.00226

$$$$
>  <Substance>
AQMQGPYNFIQDSM(averaged) P6G (AQMQGGYNFIQDSM)

>  <Reported measurement>
0.006371

$$$$
>  <Substance>
AQMQGPYNFIQDSM(averaged) F9L (AQMQGPYNLIQDSM)

>  <Reported measurement>
0.0005113

$$$$
>  <Substance>
AQMQGPYNFIQDSM(averaged) S13T (AQMQGPYNFIQDTM)

>  <Reported measurement>
0.05884

$$$$
>  <Substance>
AQMQGPYNFIQDSM(averaged) I10W (AQMQGPYNFWQDSM)

>  <Reported measurement>
0.1749

$$$$
>  <Substance>
AQMQGPYNFIQDSM(averaged) D12P (AQMQGPYNFIQPSM)

>  <Reported measurement>
0.216

$$$$
>  <Substance>
AQMQGPYNFIQDSM(averaged) P6P

>  <Reported measurement>
0.3942

$$$$
>  <Substance>
AQMQGPYNFIQDSM(averaged) G5P (AQMQPPYNFIQDSM)

>  <Reported measurement>
0.02397

$$$$
>  <Substance>
AQMQGPYNFIQDSM(averaged) S13M (AQMQGPYNFIQDMM)

>  <Reported measurement>
0

$$$$
>  <Substance>
AQMQGPYNFIQDSM(averaged) M14P (AQMQGPYNFIQDSP)

>  <Reported measurement>
0

$$$$
>  <Substance>
AQMQGPYNFIQDSM(averaged) Y7N (AQMQGPNNFIQDSM)

>  <Reported measurement>
0

$$$$
>  <Substance>
AQMQGPYNFIQDSM(averaged) Q2W (AWMQGPYNFIQDSM)

>  <Reported measurement>
0.05769

$$$$
>  <Substance>
AQMQGPYNFIQDSM(averaged) F9N (AQMQGPYNNIQDSM)

>  <Reported measurement>
0

$$$$
>  <Substance>
AQMQGPYNFIQDSM(averaged) P6A (AQMQGAYNFIQDSM)

>  <Reported measurement>
0.08584

$$$$
>  <Substance>
AQMQGPYNFIQDSM(averaged) D12Y (AQMQGPYNFIQYSM)

>  <Reported measurement>
0.00358

$$$$
>  <Substance>
AQMQGPYNFIQDSM(averaged) F9G (AQMQGPYNGIQDSM)

>  <Reported measurement>
0.0001993

$$$$
>  <Substance>
AQMQGPYNFIQDSM(averaged) I10G (AQMQGPYNFGQDSM)

>  <Reported measurement>
0.004165

$$$$
>  <Substance>
AQMQGPYNFIQDSM(averaged) A1P (PQMQGPYNFIQDSM)

>  <Reported measurement>
0.07411

$$$$
>  <Substance>
AQMQGPYNFIQDSM(averaged) P6T (AQMQGTYNFIQDSM)

>  <Reported measurement>
0.1796

$$$$
>  <Substance>
AQMQGPYNFIQDSM(averaged) G5H (AQMQHPYNFIQDSM)

>  <Reported measurement>
0.006873

$$$$
